These entries and their values trace back to patent US20210363269A1.

assay-target: T1, BALB/c mouse SIRP-α D1 domain (mouse (BALB/c strain))
T1 chain: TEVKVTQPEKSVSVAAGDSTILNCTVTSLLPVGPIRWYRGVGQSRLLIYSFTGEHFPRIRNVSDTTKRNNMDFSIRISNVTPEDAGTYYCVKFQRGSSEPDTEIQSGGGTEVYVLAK
assay-details: SPR, ProteOn, antibody on chip
Method: All experiments were performed at 25° C. using a SPR-based ProteOn XPR36 biosensor (BioRad, Inc, Hercules, Calif.) equipped with GLC or NLC sensor chips. […] Purification was carried out by standard Protein A affinity column chromatography and eluted antibodies were stored in PBS buffer. The running buffer was PBS pH 7.4 with 0.01% Tween-20 (PBST+). All analytes were used at their nominal concentrations as determined by A280 Absorbance and using their molar calculated extinction coefficient. […]
readout-name: koff (s⁻¹)
Numbers only, in s⁻¹.

Documented koff of AB25c (antibody, mouse IgG2a, V domains shown, Full-length mouse IgG2a) VH: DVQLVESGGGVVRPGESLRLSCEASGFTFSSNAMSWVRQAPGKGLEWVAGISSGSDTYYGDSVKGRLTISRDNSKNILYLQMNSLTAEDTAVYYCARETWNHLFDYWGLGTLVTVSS VL: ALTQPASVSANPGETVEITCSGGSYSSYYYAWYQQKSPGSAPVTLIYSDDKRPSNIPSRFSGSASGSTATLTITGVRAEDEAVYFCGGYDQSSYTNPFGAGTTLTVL : 0.00292
